Recorded pIC50 for the following compounds
# Tested system: IDO2 (Homo sapiens (Human))
# Sequence (Q6ZQW0 whole entry, species assumed): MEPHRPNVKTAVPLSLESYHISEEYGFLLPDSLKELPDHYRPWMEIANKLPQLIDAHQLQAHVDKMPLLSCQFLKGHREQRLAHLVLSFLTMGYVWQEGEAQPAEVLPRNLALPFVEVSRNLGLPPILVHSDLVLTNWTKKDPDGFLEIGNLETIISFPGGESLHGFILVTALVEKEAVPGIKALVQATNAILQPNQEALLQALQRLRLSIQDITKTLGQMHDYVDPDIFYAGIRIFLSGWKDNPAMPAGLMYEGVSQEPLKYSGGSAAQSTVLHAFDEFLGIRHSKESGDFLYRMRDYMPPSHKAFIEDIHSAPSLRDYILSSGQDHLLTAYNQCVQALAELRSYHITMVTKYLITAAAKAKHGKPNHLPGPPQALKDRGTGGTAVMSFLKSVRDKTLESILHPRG
# Test protocol: Cellular IDO2 assay, doxycycline and 5-methoxy-L-tryptophan medium, colorimetric
# Assay type: cell-based
# Assay context: cellular level, 72 h incubation, signal at 480 nm
pIC50: −log10 of the molar value.

Take a look at these entries with their results.
O=C1c2cc([N+](=O)[O-])ccc2-n2c1nc1c(Cl)cccc1c2=O [Compound 36] :: > 7.30
N=C(N)NCc1ccc2nc3n(c(=O)c2c1)-c1ccc(F)cc1C3=O [Compound 147] :: 6.30 to 7.30
N#C/N=C(\N)NCc1ccc2nc3n(c(=O)c2c1)-c1ccc(F)cc1C3=O [Compound 140] :: > 7.30
CN(C)Cc1ccc2nc3n(c(=O)c2c1Cl)-c1ccc(C#N)cc1C3=O [Compound 104] :: > 7.30

Q. Under IDO2 (Homo sapiens (Human)): pIC50 value of Cc1cccc2nc3n(c(=O)c12)-c1ccc([N+](=O)[O-])cc1C3=O [Compound 38] ?
A. > 7.30

Cited source for all entries: patent US20250171452A1
